target desc: PAR4 (Homo sapiens)
Construct: Human platelets express both PAR1 and PAR4; endogenous in cells; host or cells: washed human platelets from volunteer donors
Sequence (Q96RI0 18-385): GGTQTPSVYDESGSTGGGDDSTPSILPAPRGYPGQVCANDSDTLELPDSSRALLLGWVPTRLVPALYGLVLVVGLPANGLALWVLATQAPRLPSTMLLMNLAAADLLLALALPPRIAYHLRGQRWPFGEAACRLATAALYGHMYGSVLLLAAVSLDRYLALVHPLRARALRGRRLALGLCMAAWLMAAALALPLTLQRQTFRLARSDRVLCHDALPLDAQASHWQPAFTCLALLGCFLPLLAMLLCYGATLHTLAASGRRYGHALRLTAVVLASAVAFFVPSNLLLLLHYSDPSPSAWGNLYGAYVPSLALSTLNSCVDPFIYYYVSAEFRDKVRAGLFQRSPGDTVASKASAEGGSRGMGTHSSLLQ
assay: Flow cytometry: PAR4-AP mediated P-selectin expression (anti-CD62P binding) in washed platelets
Type: cell-based
details: 200 µM PAR4-AP; from raw mean fluorescent intensity values; Figure S4
measurement label: pIC50
Remember the convention: pIC50 equals -log10 of concentration in molar.

Entry under test: CCOC(=O)c1ccc(-c2nn(Cc3ccccc3)c3ccccc23)cc1 [YD-3, reference compound] . Its pIC50 was 7.79

Every entry's value here was drawn from paper PMC3679140.
